Hey, just so you know, these numbers are from PubChem BioAssay AID1845196.

Attribute: viability, T/C
System: 292921-168-R tumor spheroid viability;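 further: spheroids exposed to compounds for 7 days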
Test: Anticancer human tumor 292921-168-R patient-derived pancreatic carcinoma cell line growth inhibition
Conditions: second compound 0.3 µM; first compound 3 µM; active compounds read low; spheroids with HUVEC and MSC
Protocol: Multicellular complex tumor spheroid response to DNA repair inhibitors in combination with DNA-damaging drugs This study explores the anticancer activities of DNA-damaging drugs and inhibitors of DNA damage repair, both as single agents and in combinations. […] Twenty-six patient-derived or established malignant cell lines were evaluated representing sarcoma, melanoma, small cell lung cancer (SCLC), non-small cell lung cancer (NSCLC), as well as bladder, ovarian and pancreatic cancers. […]
// return numeric value only (unit: %, not printed)

INSERT INTO assay_data (molecule, assayed_system, value_observed) VALUES
  ('CNCc1ccc(-c2cc(-c3nc(-c4ccc(S(=O)(=O)C(C)C)cc4)cnc3N)on2)cc1 + CC[C@@]1(O)C(=O)OCc2c1cc1n(c2=O)Cc2cc3c(CN(C)C)c(O)ccc3nc2-1', '292921-168-R tumor spheroid viability', 0.97),
  ('Cn1ncnc1[C@H]1c2n[nH]c(=O)c3cc(F)cc(c23)N[C@@H]1c1ccc(F)cc1 + CC[C@@]1(O)C(=O)OCc2c1cc1n(c2=O)Cc2cc3c(CN(C)C)c(O)ccc3nc2-1', '292921-168-R tumor spheroid viability', 2.41),
  ('O=C(c1cc(Cc2n[nH]c(=O)c3ccccc23)ccc1F)N1CCN(C(=O)C2CC2)CC1 + CC[C@@]1(O)C(=O)OCc2c1cc1n(c2=O)Cc2cc3c(CN(C)C)c(O)ccc3nc2-1', '292921-168-R tumor spheroid viability', 4.65);

Give viability, T/C for Cc1sc2c(c1C)C(c1ccc(Cl)cc1)=NC(CC(=O)Nc1ccc(O)cc1)c1nnc(C)n1-2 (centres undefined) + CC[C@@]1(O)C(=O)OCc2c1cc1n(c2=O)Cc2cc3c(CN(C)C)c(O)ccc3nc2-1 0.66
